Catalogue of IC50 readings, one per entry.
Tested on: NUGC3 cells (p53 Y220C)
Assay: Cell Proliferation Assay (CellTiter-Glo), NUGC3 p53 Y220C
Format: cell-based
Details: Homo sapiens, NUGC-3, 120 h, 5 days, read-out: CTG NUGC3 P53 Y220C IC50
recorded endpoint: IC50

* CN1CC[C@@H](Nc2cccn3c(SC(F)(F)F)c(-c4cnc(CNC(=O)C5CC5)o4)cc23)[C@@H](F)C1 | ≥ 3000 nM
* CN1CC[C@@H](Nc2cccn3c(SC(F)(F)F)c(-c4noc(CNC(=O)C5CC(O)C5)n4)cc23)[C@@H](F)C1 (stereo partly drawn) | 1500 to 3000 nM
* CN1CC[C@@H](Nc2cccn3c(SC(F)(F)F)c(-c4noc(CNC(=O)C5(NC(=O)OC(C)(C)C)CC5)n4)cc23)[C@@H](F)C1 | 1500 to 3000 nM

====

Molecular target: p53 Y220C (Homo sapiens, UniProt P04637, Y220C)
Experiment: Luciferase Reporter Assay, p53 Y220C (NCIH1299 cells with inducible p53 Y220C and p53 response element-luciferase)
Assay type: cell-based
Settings: 6 hour compound treatment, read-out: Luc P53 Y220C AC50
recorded endpoint: AC50

* CN1CC[C@@H](Nc2cccn3c(SC(F)(F)F)c(-c4noc(CNC(=O)c5ncn(C)n5)n4)cc23)[C@@H](F)C1 [Example 78] | < 750 nM
* CN1CC[C@@H](Nc2cccn3c(SC(F)(F)F)c(-c4noc(CNC(=O)c5ccc(-c6ccn[nH]6)s5)n4)cc23)[C@@H](F)C1 [Example 56] | 750 to 1500 nM
* CN1CC[C@@H](Nc2cccn3c(SC(F)(F)F)c(-c4noc(CNC(=O)c5cnc(N)o5)n4)cc23)[C@@H](F)C1 [Example 77] | < 750 nM
* CN1CC[C@@H](Nc2cccn3c(SC(F)(F)F)c(-c4noc(CNC(=O)c5cnco5)n4)cc23)[C@@H](F)C1 [Example 72] | < 750 nM
* CN1CC[C@@H](Nc2cccn3c(SC(F)(F)F)c(-c4noc(CNC(=O)C5(NC(=O)OC(C)(C)C)CC5)n4)cc23)[C@@H](F)C1 [Example 22] | ≥ 3000 nM
* CN1CC[C@@H](Nc2cccn3c(SC(F)(F)F)c(-c4cc(CNC(=O)c5cnc(N(C)C)o5)no4)cc23)[C@@H](F)C1 [Example 90] | < 750 nM

====

Biological target: p53 Y220C (Homo sapiens, UniProt P04637, Y220C)
Experiment: Luciferase Reporter Assay, p53 Y220C (NCIH1299 cells with inducible p53 Y220C and p53 response element-luciferase)
Assay type: cell-based
Conditions: 6 hour compound treatment, read-out: Luc P53 Y220C AC50
recorded endpoint: AC50

* CN1CC[C@@H](Nc2cccn3c(SC(F)(F)F)c(-c4noc(CNC(=O)c5ncn[nH]5)n4)cc23)[C@@H](F)C1 | 0.75 to 1.5 µM
* CN1CC[C@@H](Nc2cccn3c(SC(F)(F)F)c(-c4noc(CNC(=O)C56CC(NC(=O)OC(C)(C)C)(C5)C6)n4)cc23)[C@@H](F)C1 | ≥ 3 µM
* CN1CC[C@@H](Nc2cccn3c(SC(F)(F)F)c(-c4noc(CNC(=O)c5ccn(C)c5)n4)cc23)[C@@H](F)C1 | < 0.75 µM
* Cc1noc(C(=O)NCc2nc(-c3cc4c(N[C@@H]5CCN(C)C[C@@H]5F)cccn4c3SC(F)(F)F)no2)n1 | 0.75 to 1.5 µM

====

Molecular target: p53 Y220C (Homo sapiens, UniProt P04637, Y220C)
Assay: Luciferase Reporter Assay, p53 Y220C (NCIH1299 cells with inducible p53 Y220C and p53 response element-luciferase)
Assay type: cell-based
Details: 6 hour compound treatment, read-out: Luc P53 Y220C AC50
recorded endpoint: AC50

* COC1(C(=O)NCc2nc(-c3cc4c(N[C@@H]5CCN(C)C[C@@H]5F)cccn4c3SC(F)(F)F)no2)CC1 | 1500 to 3000 nM
* CN1CC[C@@H](Nc2cccn3c(SC(F)(F)F)c(-c4noc(CNC(=O)c5ccn(C(C)(C)C)c5)n4)cc23)[C@@H](F)C1 | < 750 nM
* CC(C)C(=O)NCc1nc(-c2cc3c(N[C@@H]4CCN(C)C[C@@H]4F)cccn3c2SC(F)(F)F)no1 | 1500 to 3000 nM

====

Test system: NUGC3 cells (p53 Y220C)
Assay: Cell Proliferation Assay (CellTiter-Glo), NUGC3 p53 Y220C
Format: cell-based
Details: Homo sapiens, NUGC-3, 120 h, 5 days, read-out: CTG NUGC3 P53 Y220C IC50
recorded endpoint: IC50

- Cc1ccsc1C(=O)NCc1nc(-c2cc3c(N[C@@H]4CCN(C)C[C@@H]4F)cccn3c2SC(F)(F)F)no1 [Example 30]: 1500 to 3000 nM
- C[C@@H](NC(=O)C1CC1)c1nc(-c2cc3c(N[C@@H]4CCN(C)C[C@@H]4F)cccn3c2SC(F)(F)F)no1 (relative stereo) [Example 51]: ≥ 3000 nM
- CN1CC[C@@H](Nc2cccn3c(SC(F)(F)F)c(-c4cc(CNC(=O)c5cnn(C(C)(C)C)c5)no4)cc23)[C@@H](F)C1 [Example 89]: < 750 nM
- CN1CC[C@@H](Nc2cccn3c(SC(F)(F)F)c(-c4nsc(CNC(=O)c5ccn(C(C)(C)C)c5)n4)cc23)[C@@H](F)C1 [Example 6]: ≥ 3000 nM

====

Catalogue of pKd readings, one per entry.
Molecular target: p53 Y220C mutant protein (amino acid residues 94-293) (Homo sapiens, UniProt P04637, Y220C)
Construct: p53 Y220C mutant protein (amino acid residues 94-293)
Assay: Surface Plasmon Resonance (SPR) assay, p53 Y220C Kd_kinetic
Details: multi-cycle kinetics, 16 or 20 °C, pH 7.5, 1:1 binding model
Protocol: SPR experiments are performed on a Biacore 8K instrument. […] Compounds are 2-fold, 7-point serial diluted; the top concentration varies depending on the potency. Compound binding affinities are measured in the multi-cycle kinetics mode, at 30 μL/min flow rate with 60 seconds association time and 120 seconds dissociation time. The running buffer contains 50 mM Tris, pH 7.5, 100 mM NaCl, 1 mM DTT, 0.01% Brij35, 0.05% Tween-20 and 1% DMSO. […]
pKd: −log10 of the molar value.
recorded endpoint: pKd

* CN1CC[C@@H](Nc2cccn3c(SC(F)(F)F)c(-c4noc(CNC(=O)c5ccc(C#N)s5)n4)cc23)[C@@H](F)C1 | 7.00 to 8.00
* CN1CC[C@@H](Nc2cccn3c(SC(F)(F)F)c(-c4noc(CNC(=O)c5cnn(C)n5)n4)cc23)[C@@H](F)C1 | > 8.00
* CN1CC[C@@H](Nc2cccn3c(SC(F)(F)F)c(-c4cc(CNC(=O)c5cnn(C(C)(C)C)c5)no4)cc23)[C@@H](F)C1 | > 8.00
* COc1ccc2nc(C(=O)NCc3nc(-c4cc5c(N[C@@H]6CCN(C)C[C@@H]6F)cccn5c4SC(F)(F)F)no3)ccc2c1 | 7.00 to 8.00
* CNC(=O)c1cnc(NCc2nc(-c3cc4c(N[C@@H]5CCN(C)C[C@@H]5F)cccn4c3SC(F)(F)F)no2)nc1 | > 8.00

====

Catalogue of Kd readings, one per entry.
Molecular target: p53 Y220C mutant protein (amino acid residues 94-293) (Homo sapiens, UniProt P04637, Y220C)
Construct: p53 Y220C mutant protein (amino acid residues 94-293)
Assay: Surface Plasmon Resonance (SPR) assay, p53 Y220C Kd_kinetic
Details: multi-cycle kinetics, 16 or 20 °C, pH 7.5, 1:1 binding model
recorded endpoint: Kd

• CN1CC[C@@H](Nc2cccn3c(SC(F)(F)F)c(-c4noc(CNC(=O)c5cnc(N)o5)n4)cc23)[C@@H](F)C1 [Example 77] = < 10 nM
• CN1CC[C@@H](Nc2cccn3c(SC(F)(F)F)c(-c4noc(CNC(=O)c5nsc(N(C)C)n5)n4)cc23)[C@@H](F)C1 [Example 93] = < 10 nM
• CN1CC[C@@H](Nc2cccn3c(SC(F)(F)F)c(-c4noc(CNC(=O)c5sccc5F)n4)cc23)[C@@H](F)C1 [Example 32] = < 10 nM
